Settings: pH 7.5
Marks after values point to notes of the source that are not given here.

| Molecule | Log P |
| --- | --- |
| CCCCCCC(C)NC(=C(C#N)C(=O)OCC)c1cccnc1Cl (racemic) [Compound 819] | 4.55 |
| CCOC(=O)C(C#N)=C(NC(C)C(C)C)c1cccnc1 (centres unmarked) [Compound 1504] | 2.67 |
| CCOC(=O)C(C#N)=C(NC1CCCCC1O)c1cccnc1Cl (mixture of isomers) [Compound 1064] | 2.27 |
| CC(C)OC(=O)C(C#N)=C(NC(C)C(C)C)c1cccnc1Cl (centres unmarked) [Compound 946] | 3.69 |
| CCOC(=O)C(C#N)=C(NC(C)c1nccs1)c1ccc(Cl)nc1Cl (centres unmarked) [Compound 72] | 3.01 |
| CCOC(=O)C(C#N)=C(NC(C)C(C)C)c1cccnc1C(C)=NO (centres unmarked) [Compound 985] | 2.67 |
| C=CCOC(=O)C(C#N)=C(NC(C)C1CC1)c1cccnc1Cl (mixture of isomers) [Compound 906] | 3.08 |
| CNC(=O)C(C#N)=C(NC(C)C1CC1)c1cccnc1Cl (racemic) [Compound 908] | 2.2^[c]; 2.2^[b] |

====

Details: pH 2.7
Marks after values point to notes of the source that are not given here.
Entries and their measured Log P follow.
Measurement Label: Log P

| Molecule | Meas Value |
| --- | --- |
| CCOC(=O)C(C#N)=C(NC(C)C(N)=O)c1ccncc1Cl (stereo not shown) [Compound 722] | 1.65^[a] |
| COC(=O)C(C#N)=C(NC(C)c1ccc(Cl)cc1)c1sc(C)nc1C(F)(F)F (stereo not shown) [Compound 427] | 3.98^[a] |
| CCOC(=O)C(C#N)=C(NC(C)C(=O)Nc1ccc2ccccc2c1)c1sc(C)nc1C(F)(F)F (racemic) [Compound 676] | 3.99^[a] |
| CCNC(=O)C(C#N)=C(NC(C)C(C)C)c1cn(C)nc1C(F)F (stereo not shown) [Compound 1278] | 2.71^[a] |

====

Entries and their measured Log P follow.
Details: pH 2.3

| Compound | Log P |
| --- | --- |
| CCOC(=O)C(C#N)=C(NC(C)CSC)c1cccnc1C (centres unmarked) [Compound 648] | 2.2 |
| CSc1ccccc1NC(=C(C#N)C(=O)OCC(F)(F)F)c1cccnc1Cl [Compound 344] | 3.55 |
| CCOC(=O)C(C#N)=C(NC(C)C(C)C)c1cccnc1-c1ccc(Cl)cc1 (centres unmarked) [Compound 974] | 4.09 |
| CCOC(=O)C(C#N)=C(NC(C)CSC)c1cccnc1OC (centres unmarked) [Compound 687] | 2.96 |

====

Conditions: pH 2.7
Marks after values point to notes of the source that are not given here.
Entries and their measured Log P follow.

| Molecule | Log P |
| --- | --- |
| CCOC(=O)C(C#N)=C(NC(C)c1ccccn1)c1c(C)nn(C)c1F (racemic) [Compound 50] | 2.28^[a] |
| CCOC(=O)C(C)NC(=C(C#N)C(=O)OC)c1sc(C)nc1C(F)(F)F (racemic) [Compound 664] | 2.96^[a] |
| CCOC(=O)C(C#N)=C(NC(C)c1ccc2ccccc2n1)c1cccnc1Cl (centres unmarked) [Compound 1441] | 3.37^[a] |
| CCOC(=O)C(C#N)=C(NC(C)c1csc(Cl)n1)c1cccnc1Cl (centres unmarked) [Compound 322] | 3.3^[a] |
| CCOC(=O)C(C#N)=C(NC(C)CCc1ccccc1)c1sccc1Br (mixture of isomers) [Compound 445] | 4.51^[a] |
| COC(=O)C(C#N)=C(NC(C)C(C)(C)C)c1sc(C)nc1C(F)(F)F (racemic) [Compound 920] | 3.83^[a] |
| CCOC(=O)C(C#N)=C(NC(C)C1CC1)c1cn(C)nc1OC (centres unmarked) [Compound 891] | 2.8^[a] |
| CCOC(=O)C(C#N)=C(NC(C#N)c1ccccc1)c1cn(C)nc1C(F)F (centres unmarked) [Compound 1230] | 2.94^[a] |

====

Tested on: Myzus persicae
Conditions: spray on Chinese cabbage leaf-disks, 500 g/ha, after 6 days
Entries and their measured activity (mortality) follow.

| Compound | Unit Info | activity (mortality) |
| --- | --- | --- |
| CCOC(=O)C(C#N)=C(NC(C)c1nccs1)c1cccnc1SC (racemic) | % | 100 |
| CCOC(=O)C(C#N)=C(NC(C)C(=O)NC)c1ncc(C(F)(F)F)cc1Cl (stereo not shown) | % | 100 |
| CNC(=O)C(C#N)=C(NC(C)C1CC1)c1cccnc1Cl (mixture of isomers) | % | 100 |
| CSCC(C)NC(=C(C#N)C(=O)OC(C)C)c1cccnc1Cl (stereo not shown) | % | 90 |

====

Conditions: pH 2.7
Marks after values point to notes of the source that are not given here.
Entries and their measured Log P follow.
Measurement Label: Log P

| Compound | Meas Value |
| --- | --- |
| CCOC(=O)C(C#N)=C(NC(C(=O)OC)C(C)C)c1cn(C)nc1C(F)F (stereo not drawn) [Compound 675] | 2.84^[a] |
| CCOC(=O)C(C#N)=C(NC(C)c1ccc(Cl)cc1)c1sccc1C(F)(F)F (stereo not drawn) | 4.47^[a] |
| CCOC(=O)C(C#N)=C(Nc1ccccc1SC)c1sccc1Cl | 3.92^[a] |
| COC(=O)C(C#N)=C(NC1CC1F)c1cccnc1Cl (stereo not drawn) | 1.87^[a] |
| CCOC(=O)C(C#N)=C(NC(C(=O)OC)C(C)C)c1sccc1C(F)(F)F (racemic) [Compound 658] | 3.62^[a] |
| CCOC(=O)C(C#N)=C(NC1CCC1)c1cnccc1C(F)(F)F | 3.06^[a] |
| CCNC(=O)C(C#N)=C(NC(C)C1CC1)c1cnn(C)c1C(F)F (stereo not drawn) | 2.64^[a] |
| CCNC(=O)C(C#N)=C(NC(C)C(C)C)c1ccnc(Cl)c1Cl (stereo not drawn) | 3.57^[a] |
| C=CCOC(=O)C(C#N)=C(NC(C)c1nccs1)c1cccnc1Cl (stereo not drawn) | 2.62^[a] |
| COC(=O)C(C#N)=C(NC(C)c1ncc(Br)cc1Cl)c1cccnc1Cl (stereo not drawn) | 3.24^[a] |
| CCOC(=O)C(C#N)=C(NCc1nc(C)cs1)c1cn(C)nc1C(F)F | 2.3^[a] |
| CCOC(=O)C(C#N)=C(NC(Cc1ncccc1C)C(F)(F)F)c1cccnc1Cl (racemic) | 3.04^[a] |
| CCOC(=O)C(C#N)=C(Nc1ccccc1OC(C)C)c1cn(C)nc1C(F)F | 3.53^[a] |
| CCNC(=O)C(C#N)=C(NC(C)C(C)C)c1ccnc(Br)c1Cl (stereo not drawn) | 3.6^[a] |
| CCOC(=O)C(C#N)=C(NC(C)c1nccs1)c1cn(C)nc1C(F)F (racemic) [Compound 34] | 2.4^[a] |
| CCOc1ccc(C(C)NC(=C(C#N)C(=O)OC)c2cccnc2Cl)cc1 (stereo not drawn) | 3.02^[a] |
| CCOC(=O)C(C#N)=C(NC(C)COc1ccccc1)c1cn(C)nc1C(F)F (stereo not drawn) | 3.37^[a] |
| C#CCNC(=O)C(C#N)=C(NC(C)c1nccs1)c1cccnc1Cl (stereo not drawn) | 2.03^[a] |

====

Conditions: pH 2.7
Marks after values point to notes of the source that are not given here.

| Molecule | Log P |
| --- | --- |
| CCOC(=O)C(C#N)=C(NCc1nccs1)c1ccsc1I | 2.68^[a] |
| CCOC(=O)C(C#N)=C(NC(C)c1cc(C)ccn1)c1cccnc1Cl (centres unmarked) | 2.6^[a] |
| CCOC(=O)C(C#N)=C(NCC(c1ccccc1)C(C)C)c1cn(C)nc1C(F)F (racemic) | 3.94^[a] |
| CCOC(=O)C(C#N)=C(NC(C)C1(Cl)CC1)c1ccsc1Br (centres unmarked) | 3.92^[a] |
| CCOC(=O)C(C#N)=C(Nc1ccc(OC)cc1)c1cccnc1Cl | 2.98^[a] |
| CC(NC(=C(C#N)C(=O)N1CCSC1C)c1cccnc1Cl)c1nccs1 (centres unmarked) | 2.76^[a] |
| CCOC(=O)C(C#N)=C(NC(C)c1c(C)sc2c1CCCC2)c1cccnc1Cl (racemic) | 4.4^[a] |
| CCOC(=O)C(C#N)=C(NC(C)CN(C)C)c1ncc(C(F)(F)F)cc1Cl (racemic) | 1.63^[a] |

====

Details: pH 2.7
Marks after values point to notes of the source that are not given here.
Entries and their measured Log P follow.

| Compound | Log P |
| --- | --- |
| CCOC(=O)C(C#N)=C(NC(C)c1ccccn1)c1cn(C)nc1C(Cl)Cl (racemic) | 2.7^[a] |
| CCOC(=O)C(C#N)=C(NC(C(=O)OCC)c1ccccc1)c1cccnc1Cl (centres unmarked) | 3.39^[a] |
| CCCC(C)NC(=C(C#N)C(=O)OCC)c1sc(C)nc1C(F)(F)F (centres unmarked) | 3.96^[a] |
| CCOC(=O)C(C#N)=C(NC(C)c1ccc(Cl)cc1)c1sc(C)nc1C(F)(F)F (centres unmarked) | 4.27^[a] |
| C=CCOC(=O)C(C#N)=C(NCc1nccs1)c1cn(C)nc1C(F)F | 2.25^[a] |
| CCOC(=O)C(C#N)=C(NC(C)Cc1ccccn1)c1cccnc1Cl (mixture of isomers) | 1.82^[a] |
| COC(=O)C(C#N)=C(NC1CCC(C(C)(C)C)CC1)c1cccnc1Cl (centres unmarked) | 4.51^[a] |
| CCOC(=O)C(C#N)=C(NC1CCC1)c1cn(C)nc1C(F)F | 2.73^[a] |
| CC#CC(C)NC(=C(C#N)C(=O)OCC)c1cn(C)nc1C(F)F (centres unmarked) | 2.8^[a] |
| COC(=O)C(C#N)=C(NC(C)C1CCCCC1)c1sc(C)nc1C(F)(F)F (centres unmarked) | 4.46^[a] |
| CCOC(=O)C(C#N)=C(NC(C)C1CCCO1)c1ccnc(C(F)(F)F)c1Cl (centres unmarked) | 3.62^[a] |
| CCOC(=O)C(C#N)=C(NC(C)CC1CC1)c1cn(C)nc1C(F)F (centres unmarked) | 3.23^[a] |
| CCOC(=O)C(C#N)=C(NC(C)C(C)C)c1ccnc(SC)c1Cl (centres unmarked) | 4.44^[a] |
| CC#CC1(NC(=C(C#N)C(=O)OCC)c2cn(C)nc2C(F)F)CCCCC1 | 3.71^[a] |
| CCOC(=O)C(C#N)=C(NC1(CC2CC2)CC1)c1cccnc1Cl | 3.53^[a] |
| CCOC(=O)C(C#N)=C(NC(C)C(C)C)c1cn(C)nc1C(Cl)Cl (centres unmarked) | 3.46^[a] |
| CCOC(=O)C(C#N)=C(NC(C)c1nccs1)c1c(C(F)(F)F)nn(C)c1Cl (centres unmarked) | 3.2^[a] |

This collection of values is drawn from patent US8476197B2.
